- subject-of-test: Notch signal transduction pathway
- assay-method-text: In vitro Notch signal transduction pathway activity assay (DR215/F2 luciferase reporter)
- Type: cell-based, human
- condition-notes: DR215/F2 cell reporter assay
Counter-ions that a name gives are not always drawn.
attribute-measured: IC50 for blockade of the Notch pathway, range in words

1) C[C@H]1Oc2ccc(F)cc2N(CCOC(=O)NCCN)C(=O)[C@H]1NC(=O)[C@@](C)(O)C(=O)NCC(F)(F)C(F)(F)F.Cl [Compound 11a]: low nanomolar range
2) C[C@H]1Oc2ccc(F)cc2N(CCOC(=O)OCCN)C(=O)[C@H]1NC(=O)[C@@](C)(O)C(=O)NCC(F)(F)C(F)(F)F [Compound 11b, hydrochloride]: low nanomolar range
